# Tested on: IL-1β secretion in THP-1 cells (NLRP3)
# test_summary: IL-1β secretion assay in PMA-differentiated THP-1 cells stimulated with LPS and nigericin (ELISA readout)
# Assay type: cell-based
# particulars: Homo sapiens, THP-1, Table 4, LPS 25 ng/mL + nigericin, IL-1β ELISA, read-out: Activity (IC50)
reported_endpoint: IC50 (nM)

Example entries and their recorded answers appear below.
>>> df
                                   molecule  reported_endpoint  quantity_unit  numeric_value
0  O=C(Cn1nc(OC2CC(C(F)(F)F)C2)c2cc(Br)ccc2c1=O)Nc1ncc(F)cn1 (centres unmarked)               IC50             nM            360
1  COC1(C(F)(F)F)CC(Oc2nn(CC(=O)Nc3ncc(F)cn3)c(=O)c3ccc(Br)cc23)C1 (centres unmarked)               IC50             nM            447
2  O=C(Cn1nc(OC2CC2)c2cc(Cl)ccc2c1=O)Nc1ncc(F)cn1               IC50             nM            408
3  COc1nn(CC(=O)Nc2ncc(F)cn2)c(=O)c2ccc(C3CC3)c(OC)c12               IC50             nM            625

[a] Cc1cnc(NC(=O)Cn2nc(OC3CC3)c3cc(Br)ccc3c2=O)nn1
[b] Cc1cnc(NC(=O)Cn2nc(OC3CC4(CC4)C3)c3cc(Br)ccc3c2=O)nc1
[c] O=C(Cn1nc(OC2CC3(C2)CC(F)(F)C3)c2cc(Br)ccc2c1=O)Nc1ncc(F)cn1
[d] O=C(Cn1nc(OC2CC3(CCC3)C2)c2cc(Br)ccc2c1=O)Nc1ncc(F)cn1
I would appreciate it if you could sort these 4 molecules by IC50, starting from the smallest number. Answer by listing the labels in the order asked for. c, d, b, a
(c: 10 nM, d: 17 nM, b: 26 nM, a: 444 nM)

----------
# Test system: IL-1β secretion in THP-1 cells (NLRP3)
# test_summary: IL-1β secretion assay in PMA-differentiated THP-1 cells stimulated with LPS and nigericin (ELISA readout)
# Format: cell-based
# particulars: Homo sapiens, THP-1, Table 4, LPS 25 ng/mL + nigericin, IL-1β ELISA, read-out: Activity (IC50)
pIC50: −log10 of the molar value.
reported_endpoint: pIC50

>>> df
                                   compound  reported_endpoint  numeric_value
0  C[C@@H]1CC1Oc1nn(CC(=O)Nc2ncc(F)cn2)c(=O)c2ccc(Br)cc12 (stereo in doubt)              pIC50           6.03

[A] O=C(Cn1nc(OCCF)c2cc(Br)ccc2c1=O)Nc1ncc(F)cn1
[B] O=C(Cn1nc(OCC2CC2)c2cc(Br)ccc2c1=O)Nc1ncc(F)cn1
Given A and B , report the one with the higher recorded pIC50. State the label of the item chosen. B

----------
# Tested on: IL-1β secretion in THP-1 cells (NLRP3)
# test_summary: IL-1β secretion assay in PMA-differentiated THP-1 cells stimulated with LPS and nigericin (ELISA readout)
# Type: cell-based
# particulars: Homo sapiens, THP-1, Table 4, LPS 25 ng/mL + nigericin, IL-1β ELISA, read-out: Activity (IC50)
# Procedure: Compounds as provided herein were tested in the following assay. Cell culture medium employed contained RPMI 1640 medium (89%), FBS (10%), Pen/Strep (1%), and 2-mercaptoethanol (0.05 mM). Freezing medium was made up of 90% FBS and 10% DMSO. […] All media was carefully aspirated from each culture flask. […] These supernatant aliquots were analyzed using an IL-Iβ detection kit as described below. If needed, the test samples could be snap frozen and stored at −80° C. until analyzed. […]
pIC50: −log10 of the molar value.
reported_endpoint: pIC50

Example entries and their recorded answers appear below.
>>> df
                                   compound  numeric_value
0  O=C(Cn1nc(OC2CC3(CC3)C2)c2cc(Br)ccc2c1=O)Nc1ncc(Cl)cn1           7.28
1  N#Cc1cnc(NC(=O)Cn2nc(OC3CC4(CC4)C3)c3cc(Br)ccc3c2=O)nc1           7.30
2  O=C(Cn1nc(OC2C[C@@H]2F)c2cc(Br)ccc2c1=O)Nc1ncc(F)cn1 (some centres unmarked)           6.41
3  C[C@]1(O)C[C@@H](NC(=O)Cn2nc(OC3CC4(C3)CC(F)(F)C4)c3cc(Br)ccc3c2=O)C1           6.86
4  C[C@]1(O)C[C@@H](NC(=O)Cn2nc(OC3CC3)c3cc(Br)ccc3c2=O)C1           6.51
5  COc1nn(CC(=O)N[C@H]2C[C@@](C)(O)C2)c(=O)c2ccc(Br)cc12           6.74

[1] O=C(Cn1nc(OC2CC(F)(F)C2)c2cc(Br)ccc2c1=O)Nc1ncc(F)cn1
[2] O=C(Cn1nc(OCC(F)F)c2cc(Br)ccc2c1=O)Nc1ncc(F)cn1
When the recorded pIC50 values are compared, which is smaller: that of 1 or that of 2 ? State the label of the item chosen. 1
(1: 5.82, 2: 6.25)

----------
# System: IL-1β secretion in THP-1 cells (NLRP3)
# test_summary: IL-1β secretion assay in PMA-differentiated THP-1 cells stimulated with LPS and nigericin (ELISA readout)
# Format: cell-based
# particulars: Homo sapiens, THP-1, Table 4, LPS 25 ng/mL + nigericin, IL-1β ELISA, read-out: Activity (IC50)
reported_endpoint: IC50 (nM)

Example entries and their recorded answers appear below.
In [3]: df
Out[3]:
                                   molecule  quantity_unit  numeric_value
0  O=C(Cn1nc(OC2CC2)c2cc(I)ccc2c1=O)Nc1ncc(F)cn1 [Example 28]             nM             21
1  O=C(Cn1nc(OC2CC2)c2cc(C3CCC3)ccc2c1=O)Nc1ncc(F)cn1 [Example 39]             nM           1120

[I] COc1nn(CC(=O)Nc2ncc(F)cn2)c(=O)c2ccc(C3CC3)c(F)c12 [Example 32]
[II] CC[C@H]1C[C@@H]1Oc1nn(CC(=O)Nc2ncc(F)cn2)c(=O)c2ccc(Br)cc12 (relative stereo) [Example 51]
[III] O=C(Cn1nc(OC2CC3(CC3)C2)c2c(F)c(C3CC3)ccc2c1=O)Nc1ncc(F)cn1 [Example 31]
I would appreciate it if you could sort these 3 molecules by IC50, starting from the smallest number. Answer by listing the labels in the order asked for. III, I, II
(III: 66 nM, I: 183 nM, II: 790 nM)

----------
# Tested on: IL-1β secretion in THP-1 cells (NLRP3)
# test_summary: IL-1β secretion assay in PMA-differentiated THP-1 cells stimulated with LPS and nigericin (ELISA readout)
# Format: cell-based
# particulars: Homo sapiens, THP-1, Table 4, LPS 25 ng/mL + nigericin, IL-1β ELISA, read-out: Activity (IC50)
reported_endpoint: IC50 (nM)

In [3]: df
Out[3]:
                           structure_string  numeric_value
0  O=C(Cn1nc(O[C@H]2C[C@H](F)C2)c2cc(Br)ccc2c1=O)Nc1ncc(F)cn1            912

[I] O=C(Cn1nc(OC2CC2)c2cc(OC(F)F)ccc2c1=O)Nc1ncc(F)cn1
[II] O=C(Cn1nc(OC2CC2)c2cc(C3(F)CC3)ccc2c1=O)Nc1ncc(F)cn1
When the recorded IC50 values are compared, which is smaller: that of I or that of II ? State the label of the item chosen. II
(II: 152 nM, I: 424 nM)
